- procedureSummary: Induction of anti-CD3 antibodies-stimulated human T cell activation at 8 uM assessed fold increase in CD25 expression measured by ELISA assay; note: reference of the scale not given here
- Assay type: functional, T cell line
resultType: fold change (FC)

molecule: C[C@H](Cc1nncn1C)c1cccc(NC(=O)c2cc(C3CC3)cc(C(F)(F)F)n2)c1
fold change (FC): >=1.001
//
molecule: C[C@H](Cc1nncn1C)c1cccc(N2Cc3c(ccnc3C(F)(F)F)C2=O)c1
fold change (FC): >=1.001
//
molecule: Cn1cnnc1C[C@]1(c2cccc(N3Cc4c(cccc4C(F)(F)F)C3=O)c2)C[C@H](CO)C1
fold change (FC): >=1.001
//
molecule: Cc1nc(C(=O)Nc2cccc([C@H](C)Sc3nncn3C)c2)ccc1Cl
fold change (FC): 0.801
//
molecule: C[C@H](Sc1nncn1C)c1cccc(NC(=O)c2cc(C3CC3)cc(C(F)(F)F)n2)c1
fold change (FC): >=1.001

Exercise: What fold change (FC) value was documented for this molecule, "Cn1cnnc1CC(C)(C)c1cccc(N2Cc3c(cc(C4CC4)cc3C(F)(F)F)C2=O)c1" ?
Solution: >=1.001

Exercise: What fold change (FC) value was documented for this molecule, "Cn1cnnc1[C@@H]1C[C@@H]1c1cccc(NC(=O)c2nc3c(C(F)(F)F)cccc3[nH]2)c1" ?
Solution: 0.801

Exercise: What fold change (FC) value was documented for this molecule, "Cc1cc(C(=O)Nc2cccc([C@H]3C[C@H]3c3nncn3C)c2)nc(C2CC2)n1" ?
Solution: >=1.001

Exercise: What fold change (FC) value was documented for this molecule, C[C@H](CC1=NN=CC1C(F)(F)F)c1cccc(N2Cc3c(cc(C(=O)N4CC[C@H](O)C4)cc3C(F)(F)F)C2=O)c1 (stereo partly drawn) ?
Solution: >=1.001

Exercise: What fold change (FC) value was documented for this molecule, "Cn1cnnc1C(F)(F)[C@](C)(F)c1cccc(N2Cc3c(cc(CN4CC[C@H](F)C4)cc3C(F)(F)F)C2=O)c1" ?
Solution: >=1.001

Exercise: What fold change (FC) value was documented for this molecule, "Cn1cnnc1CC1(c2cccc(N3Cc4c(cc(CN5CCC(F)(F)C5)cc4C(F)(F)F)C3=O)c2)COC1" ?
Solution: >=1.001

Exercise: What fold change (FC) value was documented for this molecule, "C[C@H](Sc1nncn1C)c1cccc(NC(=O)c2ccc3ccccc3n2)c1" ?
Solution: 0.601

Exercise: What fold change (FC) value was documented for this molecule, "C[C@H](Cc1nncn1C)c1cccc(NC(=O)c2cc(C(C)(C)O)c(Cl)cn2)c1" ?
Solution: <=0.6

* * *

- procedureSummary: Induction of anti-CD3/CD28 antibodies-stimulated human CD8+ T cell activation at 1.11 uM assessed fold increase in cell proliferation measured by flow cytometry analysis
- Type: functional, T cell line
resultType: fold change (FC)
// keep it numeric: no unit symbol after the value

Here is how some compounds turned out for fold change (FC).
testSmiles: COC1CN(Cc2cc3c(c(C(F)(F)F)c2)CN(c2cccc([C@@](C)(F)C(F)(F)c4nncn4C)c2)C3=O)C1
fold change (FC): 3.01
--
testSmiles: Cc1cc(C(=O)Nc2cccc(C3(Cc4nncn4C)COC3)c2)nc(C2CC2)n1
fold change (FC): 3.01
--
testSmiles: Cc1n[nH]c(C)c1-c1cc2c(c(C(F)(F)F)c1)CN(c1cccc(C3(Cc4nncn4C)COC3)c1)C2=O
fold change (FC): 2.01
--
testSmiles: C[C@@H](Sc1nncn1C)c1cccc(NC(=O)c2cccc(C(F)(F)F)n2)c1
fold change (FC): 2.01

Exercise: What fold change (FC) value was documented for this compound, "C[C@H](Cc1nncn1C)c1cccc(NC(=O)c2n[nH]c3c2CCC3)c1" ?
Solution: 3.01

* * *

- procedureSummary: Induction of anti-CD3 antibodies-stimulated human exhausted T cell activation assessed fold increase in GM-CSF secretion measured by ELISA assay; note: reference of the scale not given here
- Type: functional, T cell line
resultType: fold change (FC)

Here is how some compounds turned out for fold change (FC).
testSmiles: Cc1cc(C(=O)Nc2cccc(C3(Cc4nncn4C)COC3)c2)nc(C2CC2)n1
fold change (FC): >1.61
//
testSmiles: Cn1cnnc1C(F)(F)[C@](C)(F)c1cccc(N2Cc3c(cc(C(=O)N4CC[C@H](O)C4)cc3C(F)(F)F)C2=O)c1
fold change (FC): <=1.4
//
testSmiles: Cn1cnnc1CC1(c2cccc(N3Cc4c(cc(CN5CC(F)C5)cc4C(F)(F)F)C3=O)c2)COC1
fold change (FC): >1.61
//
testSmiles: COC1CN(Cc2cc3c(c(C(F)(F)F)c2)CN(c2cccc([C@@](C)(F)C(F)(F)c4nncn4C)c2)C3=O)C1
fold change (FC): >1.61
//
testSmiles: C[C@H](Cc1nncn1C)c1cccc(N2Cc3c(cc(CN4CC(O)C4)cc3C(F)(F)F)C2=O)c1
fold change (FC): 1.41
//
testSmiles: C[C@H](Cc1nncn1C)c1cccc(N2Cc3c(cc(CN4CC[C@](C)(O)C4)cc3C(F)(F)F)C2=O)c1
fold change (FC): >1.61
//
testSmiles: Cn1cnnc1CC1(c2cccc(N3Cc4c(cc(CN5CC[C@H](C#N)C5)cc4C(F)(F)F)C3=O)c2)COC1
fold change (FC): 1.41
//
testSmiles: C[C@H](Cc1nncn1C)c1cccc(NC(=O)c2cc3cc(N4CCNCC4)ccc3cn2)c1.Cl
fold change (FC): <=1.4

Exercise: What fold change (FC) value was documented for this compound, "Cc1cc(C(=O)Nc2cccc([C@@H](C)Cc3nncn3C)c2)nc(C2CC2)n1" ?
Solution: <=1.4

* * *

- procedureSummary: Induction of anti-CD3 antibodies-stimulated human T cell activation at 1 uM assessed fold increase in IL-2 secretion measured by ELISA assay; note: reference of the scale not given here
- Assay type: functional, T cell line
resultType: fold change (FC)
// keep it numeric: no unit symbol after the value

testSmiles: CC1CN(c2cc3c(c(C(F)(F)F)c2)CN(c2cccc(C4(Cc5nncn5C)COC4)c2)C3=O)C1
fold change (FC): 0.101

Exercise: What fold change (FC) value was documented for this compound, "Cn1cnnc1C(F)(F)[C@](C)(F)c1cccc(N2Cc3c(cc(CN4CC[C@H](S(C)(=O)=O)C4)cc3C(F)(F)F)C2=O)c1" ?
Solution: 0.101

* * *

- procedureSummary: Induction of anti-CD3/CD28 antibodies-stimulated human T cell activation at 1 uM assessed fold increase in IL-2 secretion measured by ELISA assay
- Assay type: functional, T cell line
The entries below come with measured fold change (FC) values attached.
// keep it numeric: no unit symbol after the value

compound: Cn1cnnc1CC1(c2cccc(N3Cc4c(cc(C(N5CCCC5)C(F)(F)F)cc4C(F)(F)F)C3=O)c2)COC1 (stereo not drawn)
recordedResult: 2.51

compound: Cc1cc(C(=O)Nc2cccc(C3(Cc4nncn4C)COC3)c2)nc(C(F)(F)F)n1
recordedResult: 2.51

compound: Cc1ccc(C(=O)Nc2cccc([C@H](C)Sc3nncn3C)c2)nc1C1CC1
recordedResult: 2.51

compound: C[C@H](Cc1nncn1C)c1cccc(N2Cc3c(cc(-c4ccn[nH]4)cc3C(F)(F)F)C2=O)c1
recordedResult: 5

compound: C[C@H](Cc1nncn1C)c1cccc(NC(=O)c2cc3cccn3cn2)c1
recordedResult: 1.01

compound: Cn1cnnc1CC1(c2cccc(N3Cc4c(cccc4C(F)(F)F)C3=O)c2)COC1
recordedResult: 2.51

compound: Cn1cnnc1CC1(c2cccc(N3Cc4c(cc(OC5CC5)cc4C(F)(F)F)C3=O)c2)COC1
recordedResult: 2.51

compound: Cn1cnnc1CC1(c2cccc(N3Cc4c(cc(C5CCC5)cc4C(F)(F)F)C3=O)c2)COC1
recordedResult: 2.51

Exercise: What fold change (FC) value was documented for this compound, "Cn1cnnc1CC1(c2cccc(N3Cc4c(cc(N5CC(C(F)F)C5)nc4C4CC4)C3=O)c2)COC1" ?
Solution: 5

Exercise: What fold change (FC) value was documented for this compound, "C[C@H](Sc1nncn1C)c1cccc(NC(=O)c2ccnc(C(F)(F)F)n2)c1" ?
Solution: 1.01

Exercise: What fold change (FC) value was documented for this compound, "Cc1cc2c(c(C3CC3)n1)CN(c1cccc([C@H](C)Cc3nncn3C)c1)C2=O" ?
Solution: 1.01

* * *

The entries below come with measured fold change (FC) values attached.
- procedureSummary: Induction of activation of human CD56+ CD3- NK cells co-cultured with human K562 cells in 1:1 ratio and assessed as increase in IFN-gamma secretion at 0.625 uM measured by ELISA assay
- Format: functional, Natural killer cell
// keep it numeric: no unit symbol after the value

Here is how some molecules turned out for fold change (FC).
testSmiles: C[C@@H](c1cc2c(c(C(F)(F)F)c1)CN(c1cccc(C3(Cc4nncn4C)COC3)c1)C2=O)N1CC[C@H](F)C1
resultType: fold change (FC)
recordedResult: 2.01
//
testSmiles: Cn1cnnc1C(F)(F)[C@](C)(F)c1cccc(N2Cc3c(cc(N4CCNCC4)cc3C(F)(F)F)C2=O)c1
resultType: fold change (FC)
recordedResult: 1.01
//
testSmiles: Cn1cnnc1CC1(c2cccc(N3Cc4c(cc(CN5CC(F)C5)cc4C(F)(F)F)C3=O)c2)COC1
resultType: fold change (FC)
recordedResult: 2.01

We next turn to a different molecule, shown below.
Exercise: What fold change (FC) value was documented for this molecule, "C[C@H](c1cc2c(c(C(F)(F)F)c1)CN(c1cccc(C3(Cc4nncn4C)COC3)c1)C2=O)N1CC[C@H](F)C1" ?
Solution: 2.01
